Just for reference, ChEMBL document CHEMBL4354868 is where these values come from.

system: Escherichia coli; assay: Inhibition of DHA-1 in beta-lactam-resistant Escherichia coli TG1 transfected with pBGS18 plasmid encoding replication origin and kanamycin resistance assessed as potentiation of ceftazidime-induced antibacterial activity by measuring ceftazidime MIC at 16 ug/mL in Mueller-Hinton broth by CLSI protocol based method (reference value: 32 ug/mL)
Attribute Measured: MIC

Param item = C[C@]1(COC(=O)Cc2ccc(O)c(O)c2)[C@H](C(=O)O)N2C(=O)/C(=C/c3cc4ccccc4cn3)[C@H]2S1(=O)=O ; retrieve measured MIC. 2 µg/mL

# MIC lookup, item C[C@]1(COC(=O)Cc2ccc(O)c(O)c2)[C@H](C(=O)O)N2C(=O)/C(=C/c3ccccn3)[C@H]2S1(=O)=O < 0.25 µg/mL

---
Can you look up the measured MIC of C[C@]1(COC(=O)Cc2ccc(O)c(O)c2)[C@H](C(=O)O)N2C(=O)/C(=C/c3cc(Br)ccn3)[C@H]2S1(=O)=O for me? < 0.25 µg/mL

State the recorded MIC for this entry: Cn1cc(-c2ccnc(/C=C3/C(=O)N4[C@@H](C(=O)O)[C@](C)(COC(=O)Cc5ccc(O)c(O)c5)S(=O)(=O)[C@H]34)c2)cn1 < 0.25 µg/mL
